Source of measurements: PubChem BioAssay (NCI)

Quick reference: growth inhibition of the listed items.
assay: NCI Yeast Anticancer Drug Screen. Data for the rad50 strain (AID 155);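 also: 0% = growth of vehicle-only cultures of the same strain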; conditions: S. cerevisiae rad50 strain growth inhibition; at 50.0 µM; hits give high values
This is part of a sample that, as a whole, favours compounds with a hit. Of some 79,000 tested, about 15% had one in any assay.
Response body: numeric value in %, unit text excluded.

molecule: O=C(O)c1cnc2cc3c(cc2c1Nc1cccc(Cl)c1)OCO3
value: -2.25

molecule: Cc1cc(NC(C)C)c(C)cc1NC(C)C
value: 49

Indicate its recorded growth inhibition; the molecule in question is `C/C=C/C(=O)Nc1cc(Cl)ccc1C`
-1.25

Indicate its recorded growth inhibition; the molecule in question is `Cc1ccc(S(=O)(=O)c2c(N)c3nccn3c3nc4ccccc4nc23)cc1`
-52.2

Indicate its recorded growth inhibition; the molecule in question is `COc1ccc(CNc2cnc3ccc(N)cc3n2)cc1OC`
-36.9
